From: ChEMBL document CHEMBL5126538

target: Coagulation factor VII/tissue factor (Homo sapiens); experiment: Inhibition of TF/VIIA complex (unknown origin)
Sequence (P08709 61-212 limits assumed): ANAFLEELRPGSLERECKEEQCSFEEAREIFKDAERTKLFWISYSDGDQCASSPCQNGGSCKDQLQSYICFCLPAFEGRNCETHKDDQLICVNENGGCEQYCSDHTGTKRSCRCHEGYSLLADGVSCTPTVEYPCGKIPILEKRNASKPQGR
Sequence (P08709 213-466 limits assumed): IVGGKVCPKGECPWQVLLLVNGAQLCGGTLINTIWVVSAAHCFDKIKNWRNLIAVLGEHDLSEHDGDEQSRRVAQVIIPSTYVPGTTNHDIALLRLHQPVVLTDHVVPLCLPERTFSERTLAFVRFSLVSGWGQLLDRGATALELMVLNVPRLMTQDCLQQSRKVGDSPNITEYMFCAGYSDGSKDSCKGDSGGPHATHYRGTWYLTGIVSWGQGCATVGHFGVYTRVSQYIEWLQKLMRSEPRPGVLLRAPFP
Sequence (P13726 33-295 partner limits assumed): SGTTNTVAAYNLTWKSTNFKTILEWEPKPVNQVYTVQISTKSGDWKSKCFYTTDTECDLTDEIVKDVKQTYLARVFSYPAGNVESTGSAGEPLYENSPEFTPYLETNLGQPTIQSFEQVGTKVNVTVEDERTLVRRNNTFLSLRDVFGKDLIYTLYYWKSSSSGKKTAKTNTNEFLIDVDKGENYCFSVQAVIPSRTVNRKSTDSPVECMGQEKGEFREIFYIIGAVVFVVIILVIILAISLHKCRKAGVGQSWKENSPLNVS
Metric: IC50

Task item: Item under review: `CC(C)Nc1ccc(-c2cc(N)cc([N+](=O)[O-])c2)n(CC(=O)NCc2ccc(C(=N)N)cc2)c1=O` . Reported IC50?
Reply: 0.052 µM

Task item: Item under review: `CC(C)Nc1ccc(-c2cc(C(=O)O)cc([N+](=O)[O-])c2)n(CC(=O)NCc2ccc(C(=N)N)cc2)c1=O` . Reported IC50?
Reply: 0.118 µM
